Every entry's value here was drawn from ChEMBL document CHEMBL4311983.

SYSTEM UNDER TEST: Cholinesterase (Homo sapiens, UniProt P06276)
Sequence (P06276 whole entry): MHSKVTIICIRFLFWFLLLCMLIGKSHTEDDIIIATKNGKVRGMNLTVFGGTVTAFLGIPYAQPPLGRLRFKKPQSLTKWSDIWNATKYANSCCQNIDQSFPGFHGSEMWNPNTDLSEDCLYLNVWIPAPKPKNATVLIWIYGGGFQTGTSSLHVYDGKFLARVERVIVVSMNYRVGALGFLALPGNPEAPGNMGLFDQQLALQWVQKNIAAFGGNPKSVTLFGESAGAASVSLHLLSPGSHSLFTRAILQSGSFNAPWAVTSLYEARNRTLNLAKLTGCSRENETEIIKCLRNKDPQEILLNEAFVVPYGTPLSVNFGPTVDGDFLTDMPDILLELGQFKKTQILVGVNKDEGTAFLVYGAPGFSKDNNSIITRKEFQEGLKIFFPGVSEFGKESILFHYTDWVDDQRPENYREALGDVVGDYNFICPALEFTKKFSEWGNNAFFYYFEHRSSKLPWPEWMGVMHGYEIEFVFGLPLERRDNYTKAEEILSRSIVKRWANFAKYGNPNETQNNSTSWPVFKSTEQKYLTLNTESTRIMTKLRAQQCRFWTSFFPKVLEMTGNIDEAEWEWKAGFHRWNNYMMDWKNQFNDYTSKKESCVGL
PROTOCOL DESCRIPTION: Inhibition of BuChE (unknown origin)
QUANTITY NAME: pIC50
// scale note: pIC50 = -log10(conc_M); give the bare number

In: Consider the molecule shown here: "CCN(C)C(=O)Oc1cccc(/C=C/C(=O)c2ccccc2O)c1" What is its recorded pIC50?
Out: 5.51

---

SYSTEM UNDER TEST: Acetylcholinesterase (Electrophorus electricus, UniProt O42275)
Sequence (O42275 whole entry): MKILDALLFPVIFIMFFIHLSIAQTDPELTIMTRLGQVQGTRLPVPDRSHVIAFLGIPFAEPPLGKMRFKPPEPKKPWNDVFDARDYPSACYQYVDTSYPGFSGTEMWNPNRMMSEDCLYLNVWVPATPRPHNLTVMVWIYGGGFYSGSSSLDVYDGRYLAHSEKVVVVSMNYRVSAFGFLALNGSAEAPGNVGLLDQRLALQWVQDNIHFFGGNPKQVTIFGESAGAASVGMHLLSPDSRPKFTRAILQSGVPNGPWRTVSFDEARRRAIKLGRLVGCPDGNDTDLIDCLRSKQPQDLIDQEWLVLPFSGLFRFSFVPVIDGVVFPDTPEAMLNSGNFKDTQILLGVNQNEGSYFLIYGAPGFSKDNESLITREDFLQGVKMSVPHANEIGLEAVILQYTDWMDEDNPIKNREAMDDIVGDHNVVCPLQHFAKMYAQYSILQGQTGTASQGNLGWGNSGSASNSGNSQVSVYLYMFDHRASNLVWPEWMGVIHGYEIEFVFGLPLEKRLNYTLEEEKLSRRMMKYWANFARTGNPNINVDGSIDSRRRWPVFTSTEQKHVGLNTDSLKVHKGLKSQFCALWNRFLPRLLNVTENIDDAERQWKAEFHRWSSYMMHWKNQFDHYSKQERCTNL
PROTOCOL DESCRIPTION: Inhibition of Electric eel AChE
QUANTITY NAME: pIC50
// scale note: pIC50 = -log10(conc_M); give the bare number

In: Consider the compound shown here: "CCN(CC)Cc1ccc(/C=C/C(=O)c2ccc(OC)c(OC)c2)cc1O" What is its recorded pIC50?
Out: 6.36
